- Procedure Summary: Fecal excretion study in rats after oral NS, SF or CNS (LC–MS/MS)
- Format: in vivo
- Assay Context: rat feces, oral CNS 110 mg/kg, 12 h
Consider the following compounds and their measured Excretion amount readings.
Only the number, expressed in µg, is required.

Below, each entry is followed by its recorded Excretion amount result.
### Prompt For CC(C)=CCC[C@](C)(O[C@@H]1O[C@H](CO)[C@@H](O)[C@H](O)[C@H]1O)[C@H]1CC[C@]2(C)[C@@H]1[C@H](O)C[C@@H]1[C@@]3(C)CC[C@H](O[C@@H]4O[C@H](CO)[C@@H](O)[C@H](O)[C@H]4O[C@@H]4O[C@H](CO)[C@@H](O)[C@H](O)[C@H]4O)C(C)(C)[C@@H]3CC[C@]12C [ginsenoside Rd] , what is its reported Excretion amount?
### Response 2.459

### Prompt Another compound to look at: CC(C)=CCC[C@](C)(O[C@@H]1O[C@H](CO)[C@@H](O)[C@H](O)[C@H]1O)[C@H]1CC[C@]2(C)[C@@H]1[C@H](O)C[C@@H]1[C@@]3(C)CC[C@H](O)C(C)(C)[C@@H]3[C@@H](O[C@@H]3O[C@H](CO)[C@@H](O)[C@H](O)[C@H]3O[C@@H]3O[C@@H](C)[C@H](O)[C@@H](O)[C@H]3O)C[C@]12C [ginsenoside Re]
### Response 4.873

Next compound, Excretion amount to be filled in.
### Prompt Reported Excretion amount for CC(C)=CCC[C@](C)(O[C@@H]1O[C@H](CO)[C@@H](O)[C@H](O)[C@H]1O)[C@H]1CC[C@]2(C)[C@@H]1[C@H](O)C[C@@H]1[C@@]3(C)CC[C@H](O)C(C)(C)[C@@H]3[C@@H](O[C@@H]3O[C@H](CO)[C@@H](O)[C@H](O)[C@H]3O)C[C@]12C [ginsenoside Rg1] : what is it?
### Response 16.908
